# Test system: HepG2 cell
# Experimental Protocol: HepG2 cell cytotoxicity, ATP decrease
# Format: cell-based
# Stated Conditions: read-out: HepG2 cell Cytotoxicity ATP decrease EC50
# Method: Compounds of the invention were evaluated for cytotoxicity using standard methods known in the art. Specifically, cytotoxicity was evaluated using HEPG2 cells and monitoring ATP decrease and determining the EC50 value. […]
pEC50: −log10 of the molar value.
Measured Metric: pEC50

input: Return pEC50 measured with HepG2 cell given this compound: C[C@H](CCC(=O)O)[C@H]1CC[C@H]2[C@@H]3[C@H](O)C[C@@H]4C[C@H](O)CC[C@]4(C)[C@H]3C[C@H](O)[C@]12C [CA]
output: < 3.00

All values here come from patent US8796249B2.
